These data points were gathered from patent US20160068605A1.

# System: T1, cell-surface CD3 epsilon on primary cynomolgus T cells (cynomolgus monkey, UniProt Q95LI5 22-198)
# T1 construct: whole, on cells; also called cynomolgus CD3e; Cyno T-cells
# T1 sequence (Q95LI5 22-198): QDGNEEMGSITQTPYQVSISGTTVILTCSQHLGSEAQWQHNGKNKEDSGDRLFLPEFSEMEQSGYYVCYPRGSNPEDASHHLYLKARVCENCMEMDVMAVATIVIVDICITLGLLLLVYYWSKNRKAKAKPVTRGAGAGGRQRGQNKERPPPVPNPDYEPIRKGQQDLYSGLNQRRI
# Assay info: flow cytometry on primary cynomolgus CD4+ T cells, anti-human IgG Alexa Fluor 647; MFI
Outcome measure: binding result

[
  {
    "Binder": "CD3B156 (antibody, IgG1, V domains shown, IgG1 constant region with L234A, L235A, F405L; human lambda light chain constant region) VH: EVQLVESGGGLVQPGGSLKLSCAASGFTFNTYAMNWVRQASGKGLEWVGRIRSKYNGYATYYAASVKGRFTISRDDSKNTAYLQMNSLKTEDTAVYYCTRHGNFGNSYVSWFAYWGQGTLVTVSS VL: QSVLTQPPSVSAAPGQKVTISCRSSTGAVTTSNYANWVQQLPGTAPKGLIGGTNKRAPGIPDRFSGSKSGTSATLGITGLQTGDEADYYCALWYSNLWVFGGGTKLTVL",
    "Recorded value": "binds"
  },
  {
    "Binder": "CD3B143 (antibody, IgG1, V domains shown, IgG1 constant region with L234A, L235A, F405L; human lambda light chain constant region) VH: EVQLVESGGGLVQPGGSLRLSCAASGFTFNTYAMNWVRQAPGKGLEWVARIRSKYNNYATYYAASVKGRFTISRDDSKNSLYLQMNSLKTEDTAVYYCARHGNFGNSYVSWFAYWGQGTLVTVSS VL: QAVVTQEPSLTVSPGGTVTLTCRSSTGAVTTSNYANWVQQKPGQAPRGLIGGTNKRAPGTPARFSGSLLGGKAALTLSGAQPEDEAEYYCALWYSNLWVFGGGTKLTVL",
    "Recorded value": "binds"
  }
]
